target: ALK (Homo sapiens); construct: host or cells: baculovirus expression system; assay: ALK Kinase Assay (ELISA/TRF, PLC-γ substrate); format: biochemical; settings: ALK kinase inhibition, 1 μM ATP; read-out: ALK Potency
Sequence (Q9UM73 19-1620): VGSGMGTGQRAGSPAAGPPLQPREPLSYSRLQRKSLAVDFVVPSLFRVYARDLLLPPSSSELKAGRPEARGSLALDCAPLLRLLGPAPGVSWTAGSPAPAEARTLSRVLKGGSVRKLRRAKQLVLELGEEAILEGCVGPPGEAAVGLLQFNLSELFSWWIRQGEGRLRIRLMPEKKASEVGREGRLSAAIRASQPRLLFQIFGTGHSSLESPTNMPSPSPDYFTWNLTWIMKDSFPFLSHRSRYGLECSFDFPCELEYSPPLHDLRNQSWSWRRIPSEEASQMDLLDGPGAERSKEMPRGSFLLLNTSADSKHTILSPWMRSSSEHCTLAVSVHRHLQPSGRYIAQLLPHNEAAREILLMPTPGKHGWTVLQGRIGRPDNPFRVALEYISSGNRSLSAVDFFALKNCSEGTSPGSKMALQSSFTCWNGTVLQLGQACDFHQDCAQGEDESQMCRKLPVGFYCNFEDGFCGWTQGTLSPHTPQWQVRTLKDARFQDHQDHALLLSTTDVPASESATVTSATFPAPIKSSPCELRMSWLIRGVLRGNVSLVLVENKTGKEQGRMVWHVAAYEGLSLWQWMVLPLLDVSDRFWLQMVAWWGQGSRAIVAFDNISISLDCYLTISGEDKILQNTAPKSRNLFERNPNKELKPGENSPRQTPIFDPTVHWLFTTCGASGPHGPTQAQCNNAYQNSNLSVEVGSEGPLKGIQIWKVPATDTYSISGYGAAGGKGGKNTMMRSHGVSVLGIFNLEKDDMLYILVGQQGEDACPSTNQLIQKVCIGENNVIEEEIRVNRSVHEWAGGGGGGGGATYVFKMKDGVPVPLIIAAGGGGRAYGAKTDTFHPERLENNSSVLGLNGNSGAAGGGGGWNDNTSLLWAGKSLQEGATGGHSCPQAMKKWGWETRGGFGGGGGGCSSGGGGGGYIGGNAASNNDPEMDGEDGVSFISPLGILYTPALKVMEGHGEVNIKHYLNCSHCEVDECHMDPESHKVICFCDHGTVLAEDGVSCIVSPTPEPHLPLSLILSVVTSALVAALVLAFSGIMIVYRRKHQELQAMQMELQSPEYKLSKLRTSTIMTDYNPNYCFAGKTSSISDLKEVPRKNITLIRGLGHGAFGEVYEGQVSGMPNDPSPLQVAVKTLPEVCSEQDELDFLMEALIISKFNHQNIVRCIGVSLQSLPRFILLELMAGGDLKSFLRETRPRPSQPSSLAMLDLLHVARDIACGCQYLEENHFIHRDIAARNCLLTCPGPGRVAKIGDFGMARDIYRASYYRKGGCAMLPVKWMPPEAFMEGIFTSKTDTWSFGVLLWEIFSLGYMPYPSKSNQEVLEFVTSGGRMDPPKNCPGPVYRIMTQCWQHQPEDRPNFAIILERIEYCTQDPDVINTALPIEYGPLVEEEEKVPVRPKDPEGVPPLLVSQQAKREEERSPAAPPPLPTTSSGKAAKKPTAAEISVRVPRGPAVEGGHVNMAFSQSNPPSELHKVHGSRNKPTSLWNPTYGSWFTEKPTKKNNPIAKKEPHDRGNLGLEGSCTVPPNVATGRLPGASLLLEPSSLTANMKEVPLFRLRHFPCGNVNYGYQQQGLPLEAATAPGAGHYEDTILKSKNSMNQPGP
Would you kindly list IC50 for each of these molecules?

# count of solved cases: 2
COc1cc2c(cc1Nc1ncc3ccc(-c4cccc(S(=O)(=O)NC(C)(C)C)c4)n3n1)CCN(C[C@H](C)O)CC2 [Example 701] = < 0.1 µM
CC(C)Oc1cccc(-c2ccc3cnc(Nc4ccc(C5CCN(CC(N)=O)CC5)cc4)nn23)c1 [Example 588] = 0.1 to 1 µM

Consider the record given below.
Request: State, in one line, measured IC50 of CN1CCN(C(=O)N2CCC(c3ccc(Nc4ncc5ccc(-c6ccccc6N(C)S(C)(=O)=O)n5n4)cc3)CC2)CC1 [Example 503]
Result: < 0.1 µM
